METHOD: Pharmacokinetics and bioavailability in male Han Wistar rats after simultaneous oral administration
Format: in vivo
RUN PARAMETERS: oral, mean N=4
OUTCOME MEASURE: Cmax (µM)
Just the number in µM, nothing appended.

Lab note: CN(C)c1nc(Cc2ccc(NC(=O)c3ccc(C(F)(F)F)cc3)cc2)nc(N(C)C)c1CC(=O)O [Undeuterated Analog, reference compound] gave Cmax of 3.08

* * *

METHOD: Pharmacokinetics and bioavailability in male Han Wistar rats after simultaneous oral administration
Format: in vivo
RUN PARAMETERS: male, Han Wistar, rat, in vivo, po, 1.02 mg/kg, MRT
OUTCOME MEASURE: MRT (h)
Just the number in h, nothing appended.

Lab note: [2H]C([2H])([2H])N(c1nc(Cc2ccc(NC(=O)c3ccc(C(F)(F)F)cc3)cc2)nc(N(C([2H])([2H])[2H])C([2H])([2H])[2H])c1CC(=O)O)C([2H])([2H])[2H] gave MRT of 2.61

* * *

METHOD: Pharmacokinetics and bioavailability in male Han Wistar rats after simultaneous oral administration
Type: in vivo
RUN PARAMETERS: male, Han Wistar, rat, in vivo, po, 1.02 mg/kg, tmax
OUTCOME MEASURE: tmax (min)
Just the number in min, nothing appended.

Lab note: [2H]C([2H])([2H])N(c1nc(Cc2ccc(NC(=O)c3ccc(C(F)(F)F)cc3)cc2)nc(N(C([2H])([2H])[2H])C([2H])([2H])[2H])c1CC(=O)O)C([2H])([2H])[2H] gave tmax of 30

* * *

METHOD: Pharmacokinetics and bioavailability in male Han Wistar rats after simultaneous oral administration
Type: in vivo
RUN PARAMETERS: male, Han Wistar, rat, in vivo, po, Bioavailability
OUTCOME MEASURE: Bioavailability (%)
Just the number in %, nothing appended.

Lab note: [2H]C([2H])([2H])N(c1nc(Cc2ccc(NC(=O)c3ccc(C(F)(F)F)cc3)cc2)nc(N(C([2H])([2H])[2H])C([2H])([2H])[2H])c1CC(=O)O)C([2H])([2H])[2H] gave Bioavailability of 52.5
